system: LG0703-F948-PDC complex spheroid viability; test: Anticancer human tumor LG0703-F948-PDC patient-derived lung adenocarcinoma cell line growth inhibition [RAS]; conditions: curve of first compound; second compound 0.00949 µM;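 further: spheroids exposed to agents for 7 days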
pIC50: −log10 of the molar value.
Collected pIC50 values appear next to each entry.

Answered cases to consult:
compound	assay_value
CC(C)n1nc(-c2ccc3oc(N)nc3c2)c2c(N)ncnc21 + CCn1c(-c2cc(N3CCN(C)CC3)cnc2C(C)OC)c2c3cc(ccc31)-c1csc(n1)CC(NC(=O)C1CC1C)C(=O)N1CCCC(N1)C(=O)OCC(C)(C)C2	> 9.50
CC(C)n1nc(-c2ccc3oc(N)nc3c2)c2c(N)ncnc21 + CCn1c(-c2cccnc2C(C)OC)c2c3cc(ccc31)N1CCOC(CC(NC(=O)C(C(C)C)N(C)C(=O)C3(F)CCN(C(=O)C#CC(C)(C)N(C)C)CC3)C(=O)N3CCCC(N3)C(=O)OCC(C)(C)C2)C1	8.11
CC(Nc1ccc2c(c1)OCCn1cc(N3C(=O)OCC3C(F)F)nc1-2)C(N)=O (centres undefined) + CCn1c(-c2cc(N3CCN(C)CC3)cnc2C(C)OC)c2c3cc(ccc31)-c1csc(n1)CC(NC(=O)C1CC1C)C(=O)N1CCCC(N1)C(=O)OCC(C)(C)C2	> 7.50

// next entry
Kindly note: LG0703-F948-PDC complex spheroid viability, CCC(CC)c1cc(NC2CCC(N)C2)n2nccc2n1 (centres undefined) + CCn1c(-c2cc(N3CCN(C)CC3)cnc2C(C)OC)c2c3cc(ccc31)-c1csc(n1)CC(NC(=O)C1CC1C)C(=O)N1CCCC(N1)C(=O)OCC(C)(C)C2 , pIC50 value reported: > 7.50
